Molecular target: Acetylcholinesterase (Homo sapiens)
Sequence (P22303 whole entry): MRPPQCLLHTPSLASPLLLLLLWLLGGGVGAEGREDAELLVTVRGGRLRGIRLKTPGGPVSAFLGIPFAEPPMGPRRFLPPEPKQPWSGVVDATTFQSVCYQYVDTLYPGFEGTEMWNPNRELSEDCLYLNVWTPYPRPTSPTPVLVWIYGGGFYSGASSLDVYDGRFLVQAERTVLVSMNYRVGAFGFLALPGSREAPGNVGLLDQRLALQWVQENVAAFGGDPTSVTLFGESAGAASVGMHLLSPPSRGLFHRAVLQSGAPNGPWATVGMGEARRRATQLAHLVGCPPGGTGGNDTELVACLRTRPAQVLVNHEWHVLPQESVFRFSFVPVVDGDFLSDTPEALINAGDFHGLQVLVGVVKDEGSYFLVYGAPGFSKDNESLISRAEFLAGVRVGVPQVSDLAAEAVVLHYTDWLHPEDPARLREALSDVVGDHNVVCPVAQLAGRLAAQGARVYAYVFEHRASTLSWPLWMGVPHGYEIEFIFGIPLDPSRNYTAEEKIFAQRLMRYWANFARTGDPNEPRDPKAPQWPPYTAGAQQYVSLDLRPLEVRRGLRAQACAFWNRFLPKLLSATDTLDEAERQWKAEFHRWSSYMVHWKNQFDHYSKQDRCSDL
pIC50: −log10 of the molar value.
// no (0) strictly below 7 in pIC50; yes (1) otherwise

- COMPOUND_STRUCTURE_STRING: "COc1ccc(Cn2cc(C(=O)NCCCCCCCCNc3c4c(nc5ccccc35)CCCC4)c(=O)c3ccccc32)cc1"
  CLASS_ASSIGNMENT: "no (0)"
- COMPOUND_STRUCTURE_STRING: "COc1ccc(Cn2cc(C(=O)NCCCCCCCNc3c4c(nc5cc(Cl)ccc35)CCCC4)c(=O)c3ccccc32)cc1"
  CLASS_ASSIGNMENT: "yes (1)"
- COMPOUND_STRUCTURE_STRING: "COc1ccc(Cn2cc(C(=O)NCCCCCCCCNc3c4c(nc5ccc(OC)cc35)CCCC4)c(=O)c3ccccc32)cc1"
  CLASS_ASSIGNMENT: "no (0)"
- COMPOUND_STRUCTURE_STRING: "COc1ccc(Cn2cc(C(=O)NCCCCCNc3c4c(nc5ccc(OC)cc35)CCCC4)c(=O)c3ccccc32)cc1"
  CLASS_ASSIGNMENT: "no (0)"
- COMPOUND_STRUCTURE_STRING: "COc1ccc(Cn2cc(C(=O)NCCCCCCCNc3c4c(nc5ccc(OC)cc35)CCCC4)c(=O)c3ccccc32)cc1"
  CLASS_ASSIGNMENT: "no (0)"
- COMPOUND_STRUCTURE_STRING: "COc1ccc(Cn2cc(C(=O)NCCCCCNc3c4c(nc5ccccc35)CCCC4)c(=O)c3ccccc32)cc1"
  CLASS_ASSIGNMENT: "no (0)"
- COMPOUND_STRUCTURE_STRING: "COc1ccc(Cn2cc(C(=O)NCCCNc3c4c(nc5cc(Cl)ccc35)CCCC4)c(=O)c3ccccc32)cc1"
  CLASS_ASSIGNMENT: "yes (1)"
- COMPOUND_STRUCTURE_STRING: "COc1ccc(Cn2cc(C(=O)NCCCCCCCNc3c4c(nc5ccccc35)CCCC4)c(=O)c3ccccc32)cc1"
  CLASS_ASSIGNMENT: "no (0)"
- COMPOUND_STRUCTURE_STRING: "COc1ccc(Cn2cc(C(=O)NCCCCNc3c4c(nc5ccccc35)CCCC4)c(=O)c3ccccc32)cc1"
  CLASS_ASSIGNMENT: "no (0)"
- COMPOUND_STRUCTURE_STRING: "COc1ccc(Cn2cc(C(=O)NCCNc3c4c(nc5ccc(OC)cc35)CCCC4)c(=O)c3ccccc32)cc1"
  CLASS_ASSIGNMENT: "no (0)"
- COMPOUND_STRUCTURE_STRING: "COc1ccc(Cn2cc(C(=O)NCCCCCNc3c4c(nc5cc(Cl)ccc35)CCCC4)c(=O)c3ccccc32)cc1"
  CLASS_ASSIGNMENT: "no (0)"
- COMPOUND_STRUCTURE_STRING: "COc1ccc(Cn2cc(C(=O)O)c(=O)c3ccccc32)cc1"
  CLASS_ASSIGNMENT: "no (0)"
- COMPOUND_STRUCTURE_STRING: "COc1ccc(Cn2cc(C(=O)NCCNc3c4c(nc5ccccc35)CCCC4)c(=O)c3ccccc32)cc1"
  CLASS_ASSIGNMENT: "no (0)"
